Below: a set of entries, each annotated with reported recombinant barcode read abundance (log10).
# TEST NAME: recombinant barcode read abundance after kanamycin selection (control-corrected) (log10(CPM+1)); higher = more efficient recombination; sequences stand for … in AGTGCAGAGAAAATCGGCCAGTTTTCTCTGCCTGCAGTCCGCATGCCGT…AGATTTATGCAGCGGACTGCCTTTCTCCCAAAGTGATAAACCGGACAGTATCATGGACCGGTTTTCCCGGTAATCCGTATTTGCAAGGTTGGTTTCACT; site = the 11-nt target;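 also: IS621 recombinase and bridge RNA in Escherichia coli cells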
ASSAY READOUT: recombinant barcode read abundance (log10)

CONSTRUCT SEQUENCE	MEASURED
GTTTCGACTTGGGTTCTAACCTGTTGCTA (site GTTTCGACTTA)	0.238
CAGACTCCTTGGGTTCTAACCTGTTGCCT (site TAGACTACTAG)	0.186
CCAGCAGCTTGGGTTCTAACCTGTTGCCT (site CCAGGAGCTAG)	0.0858
AGCACGACTTGGGTTCTAACCTGTTGCTG (site AGCAGGACTCG)	0.157
CTCTAGTCTTGGGTTCTAACCTGTTGCTT (site CTCTAGTCTAG)	0.377
